target: human MMP12 catalytic domain (Homo sapiens); construct: Recombinant human MMP12 catalytic domain; test: Isolated enzyme assay MMP12 (fluorogenic substrate); conditions: recombinant human MMP12 catalytic domain, 60 minutes at room temperature; read-out: hMMP12 IC50
Sequence (P39900 106-263 limits assumed): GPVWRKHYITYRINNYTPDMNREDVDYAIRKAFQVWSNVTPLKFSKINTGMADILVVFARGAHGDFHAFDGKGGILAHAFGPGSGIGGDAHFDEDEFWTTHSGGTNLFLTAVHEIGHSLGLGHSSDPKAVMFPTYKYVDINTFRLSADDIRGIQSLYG
Where a name gives a salt, the structure may show the parent alone.
value.type: pIC50
Expect pIC50 as a plain number equal to -log10 of the molar concentration.

As a guide, the following entries are already answered.
>>> measured_result("CCc1ncc(Oc2ccc(CN(C)S(=O)(=O)C[C@@]3(C4CC4)NC(=O)NC3=O)cc2)cn1 [Example 5]")
7.77
>>> measured_result("O=C1NC(=O)[C@](CS(=O)(=O)NCc2ccc(Oc3cnc(C(F)(F)F)nc3)cc2)(C2CC2)N1 [Example 6]")
7.20
>>> measured_result("Cc1ncc(Oc2ccc(CN(C)S(=O)(=O)C[C@@]3(C4CC4)NC(=O)NC3=O)cc2)cn1 [Example 3]")
7.85
>>> measured_result("CN(Cc1ccc(Oc2cncnc2)cc1)S(=O)(=O)C[C@@]1(C2CC2)NC(=O)NC1=O [Example 1, trifluoroacetic acid salt]")
7.72
>>> measured_result("CN(Cc1ccc(Oc2cnc(C(F)(F)F)nc2)cc1)S(=O)(=O)C[C@@]1(C2CC2)NC(=O)NC1=O [Example 4]")
8.08

Give measured pIC50 for C[C@]1(CS(=O)(=O)NCc2ccc(Oc3ccccc3)cc2)NC(=O)NC1=O [reference compound] (human MMP12 catalytic domain (Homo sapiens)).
6.82

Send back human MMP12 catalytic domain (Homo sapiens) pIC50 of CN(Cc1ccc(Oc2cnc(C3CC3)nc2)cc1)S(=O)(=O)C[C@@]1(C2CC2)NC(=O)NC1=O [Example 2] only.
8.37

---

Here the recorded Selectivity for inhibition of hMMP12 over: hMMP8 is given for each entry.
molecular target: hMMP8 (Homo sapiens); construct: purchased Calbiochem; assay: Isolated enzyme assay MMP8 (fluorogenic substrate); type: biochemical; conditions: IC50 (MMP8) divided by IC50 (MMP12)
Sequence (P22894 101-467): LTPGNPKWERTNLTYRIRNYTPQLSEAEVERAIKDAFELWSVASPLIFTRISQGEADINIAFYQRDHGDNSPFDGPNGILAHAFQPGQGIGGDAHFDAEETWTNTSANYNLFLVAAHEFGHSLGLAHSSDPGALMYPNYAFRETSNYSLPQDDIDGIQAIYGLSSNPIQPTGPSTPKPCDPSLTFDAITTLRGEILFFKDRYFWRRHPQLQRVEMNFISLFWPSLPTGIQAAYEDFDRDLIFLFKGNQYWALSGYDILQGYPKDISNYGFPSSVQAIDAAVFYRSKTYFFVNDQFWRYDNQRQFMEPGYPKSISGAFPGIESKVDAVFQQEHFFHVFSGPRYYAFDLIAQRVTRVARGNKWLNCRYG
Counter-ions that a name gives are not always drawn.
Please reply with the value in numeric form only.

>>> measured_result("CN(Cc1ccc(Oc2cncnc2)cc1)S(=O)(=O)C[C@@]1(C2CC2)NC(=O)NC1=O [Example 1, trifluoroacetic acid salt]")
320
>>> measured_result("C[C@]1(CS(=O)(=O)NCc2ccc(Oc3ccccc3)cc2)NC(=O)NC1=O [reference compound]")
202

Field: next molecule
Please report Selectivity for inhibition of hMMP12 over: hMMP8 for the following molecule: CCc1ncc(Oc2ccc(CN(C)S(=O)(=O)C[C@@]3(C4CC4)NC(=O)NC3=O)cc2)cn1
417

---

biological target: human MMP14 catalytic domain (Homo sapiens, UniProt P50281); construct: Recombinant human MMP14 catalytic domain; made in house; assay: Isolated enzyme assay MMP14 (fluorogenic substrate); format: biochemical; details: IC50 (MMP14) divided by IC50 (MMP12)
Counter-ions that a name gives are not always drawn.
value.type: Selectivity for inhibition of hMMP12 over: hMMP14

Below, each entry is followed by its recorded Selectivity for inhibition of hMMP12 over: hMMP14 result.
>>> measured_result("CCc1ncc(Oc2ccc(CN(C)S(=O)(=O)C[C@@]3(C4CC4)NC(=O)NC3=O)cc2)cn1")
">588"
>>> measured_result("CN(Cc1ccc(Oc2cnc(C(F)(F)F)nc2)cc1)S(=O)(=O)C[C@@]1(C2CC2)NC(=O)NC1=O")
">3560"
>>> measured_result("CN(Cc1ccc(Oc2cnc(C3CC3)nc2)cc1)S(=O)(=O)C[C@@]1(C2CC2)NC(=O)NC1=O")
">2320"
>>> measured_result("C[C@]1(CS(=O)(=O)NCc2ccc(Oc3ccccc3)cc2)NC(=O)NC1=O [reference compound]")
">330"
>>> measured_result("CN(Cc1ccc(Oc2cncnc2)cc1)S(=O)(=O)C[C@@]1(C2CC2)NC(=O)NC1=O [Example 1, trifluoroacetic acid salt]")
">525"

Moving on to another compound below.
Check the records and state Selectivity for inhibition of hMMP12 over: hMMP14 for Cc1ncc(Oc2ccc(CN(C)S(=O)(=O)C[C@@]3(C4CC4)NC(=O)NC3=O)cc2)cn1
>7142

Every entry's value here was drawn from patent US8183251B2.
